target: receptor 5-HT4(b) (Homo sapiens, UniProt Q13639)
Sequence (Q13639 whole entry): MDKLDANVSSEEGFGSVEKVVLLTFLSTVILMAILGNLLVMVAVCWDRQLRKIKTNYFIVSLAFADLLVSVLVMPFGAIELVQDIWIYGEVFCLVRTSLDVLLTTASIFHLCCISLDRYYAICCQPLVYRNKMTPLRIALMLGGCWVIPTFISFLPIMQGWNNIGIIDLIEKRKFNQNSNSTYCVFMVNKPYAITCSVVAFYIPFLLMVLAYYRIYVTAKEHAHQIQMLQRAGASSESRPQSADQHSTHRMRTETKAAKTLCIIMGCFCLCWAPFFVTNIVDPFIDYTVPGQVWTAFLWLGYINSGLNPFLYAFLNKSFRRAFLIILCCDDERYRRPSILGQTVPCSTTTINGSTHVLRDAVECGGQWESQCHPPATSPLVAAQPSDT
Reported property: Kd (nM)
Express the result in nM but write the number alone.

Exercise: What value of Kd has been recorded for this entry: Cn1cc(C(=O)OCC2CCN(CCNS(C)(=O)=O)CC2)c2ccccc21 [[^3H]GR113808]
Solution: 0.62

====

biological target: receptor 5-HT4(c) (Homo sapiens, UniProt Q13639); assay: [3H]GR113808 saturation binding, membranes of stably transfected CHO cells; parameters: The entire coding region of the cDNAs of 5-HT4(a), 5-HT4(b), 5-HT4(c) and 5-T4(d) was subcloned; expressed in transfected cells; pRC/CMV vector; cDNA amplified from human brain and ileum RNA; conditions: 30 minutes at 25° C., read-out: Kd, saturation analysis
Sequence (Q13639 1-380 isoform Q13639-4): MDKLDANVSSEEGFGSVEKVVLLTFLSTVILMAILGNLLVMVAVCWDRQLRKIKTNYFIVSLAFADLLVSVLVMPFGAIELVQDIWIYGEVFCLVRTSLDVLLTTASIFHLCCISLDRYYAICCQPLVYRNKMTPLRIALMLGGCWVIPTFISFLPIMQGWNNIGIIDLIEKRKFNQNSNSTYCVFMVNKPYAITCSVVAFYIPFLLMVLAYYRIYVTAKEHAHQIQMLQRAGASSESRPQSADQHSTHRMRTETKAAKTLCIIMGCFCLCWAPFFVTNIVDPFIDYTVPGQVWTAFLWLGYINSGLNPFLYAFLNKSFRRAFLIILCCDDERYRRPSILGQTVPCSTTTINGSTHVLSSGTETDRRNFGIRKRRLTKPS
Reported property: Kd
Quick note: number first, unit second.

Exercise: What value of Kd has been recorded for this entry: Cn1cc(C(=O)OCC2CCN(CCNS(C)(=O)=O)CC2)c2ccccc21 [[^3H]GR113808]
Solution: 0.42 nM
